Ref: patent EP0155104A2

I'd appreciate it if you could supply Bo (% tracer bound) values for the items below.
- System: serum proteins
- ASSAY SUMMARY: Amerlex free T4 radioimmunoassay: Bo value with added blocking agent
- Format: binding
- CONDITION PARAMETERS: blocking agent 10^-3 M; no addition: 67.7
Expressed in %, but write only the number.

Reported Bo (% tracer bound) ( O=C(O)c1cc(O)ccc1O [Gentisate, sodium gentisate (2,5-dihydroxybenzoate)] ) = 70.5

Reported Bo (% tracer bound) ( NC(=O)c1ccccc1O [Salicylamide, salicylamide] ) = 67.5

Reported Bo (% tracer bound) ( O=[N+]([O-])c1ccc(O)c([N+](=O)[O-])c1 ) = 60.0

Reported Bo (% tracer bound) ( O=C(O)c1c(O)cccc1O [Gamma resorcylate] ) = 70.3
